TARGET DESC: Bevacizumab (Homo sapiens)
Construct: fused on or other part: humanised anti-VEGF-A VH domain N-terminal of the gamma-1 constant region (engineered, no UniProt entry)
TEST: Microtiter plate chromatography of resins, Bevacizumab whole IgG (bound, yield, selectivity)
Assay type: binding, humanized
EXPERIMENTAL CONTEXT: mass of whole IgG Bevacizumab eluted / mass injected
Decide by Bevacizumab IgG Yield (%): equal to or exceeding 90% means yes (1), less means no (0).

MOLECULE: COc1ccc(NC(=O)c2cc(-c3cccn3C)n(C)n2)cc1C(=O)NCCCN [Ligand L16]
ANSWER LABEL: yes (1)
--
MOLECULE: COc1ccc(NC(=O)c2cncc(-c3ccccc3)c2)cc1C(=O)NCCCN [Ligand L11]
ANSWER LABEL: yes (1)
--
MOLECULE: COc1ccc(NC(=O)c2cc3ncccn3n2)cc1C(=O)NCCCN [Ligand L56]
ANSWER LABEL: yes (1)
--
MOLECULE: COc1ccc(NC(=O)c2cc(-c3ccccc3)no2)cc1C(=O)NCCCN [Ligand L51]
ANSWER LABEL: yes (1)
--
MOLECULE: Cn1nc(C(=O)Nc2ccc(O)c(C(=O)NCCCN)c2)cc1-c1ccco1 [Ligand L30]
ANSWER LABEL: yes (1)
--
MOLECULE: COc1ccc(NC(=O)c2cn3cccnc3n2)cc1C(=O)NCCCN [Ligand L63]
ANSWER LABEL: yes (1)
--
MOLECULE: COc1ccc(NC(=O)c2cc(-c3cccc(Cl)c3)n(C)n2)cc1C(=O)NCCCN [Ligand L7]
ANSWER LABEL: yes (1)
--
MOLECULE: COc1ccc(NC(=O)c2nn(C)c3ccccc23)cc1C(=O)NCCOCCOCC(=O)NCCCN [Ligand L60]
ANSWER LABEL: no (0)
--
MOLECULE: COc1ccc(NC(=O)c2cncc(-c3ccc(C(F)(F)F)cc3)c2)cc1C(=O)NCCCN [Ligand L12]
ANSWER LABEL: no (0)
--
MOLECULE: COc1ccc(NC(=O)c2n[nH]c3ccccc23)cc1C(=O)NCCCN [Ligand L36]
ANSWER LABEL: yes (1)
